Test system: Escherichia coli TOP10;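 note: peptides expressed intracellularly from a pBAD plasmid library in pooled LB shake-flask culture, induced with 0.3% L-arabinose, DNA abundance read by NGS, three biological replicates, DESeq2 with apeglm shrinkage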
Assay: shrunken log2 fold change of peptide-encoding DNA abundance (4.5 h post-induction vs induction); higher = less antimicrobial activity (less host growth inhibition)
Conditions: time post-induction: 4.5 h; library: site-saturation at positions 5, 18, 19, 20
Assign class by shrunken log2 fold change: not lower than 0.02 means YES; lower than 0.02 means NO.

residueSequence: RRIRHRPPRLPRPRPRPKHFPRP
qualitativeLabel: YES
--
residueSequence: RRIRRRPPRLPRPRPRPERSPRP
qualitativeLabel: NO
--
residueSequence: RRIRPRPPRLPRPRPRPGVMPRP
qualitativeLabel: NO
--
residueSequence: RRIRHRPPRLPRPRPRPALLPRP
qualitativeLabel: YES
--
residueSequence: RRIRTRPPRLPRPRPRPFCTPRP
qualitativeLabel: NO
--
residueSequence: RRIRDRPPRLPRPRPRPKTHPRP
qualitativeLabel: YES
--
residueSequence: RRIRWRPPRLPRPRPRPGRAPRP
qualitativeLabel: YES
--
residueSequence: RRIRVRPPRLPRPRPRPKARPRP
qualitativeLabel: YES
--
residueSequence: RRIRQRPPRLPRPRPRPEKHPRP
qualitativeLabel: NO
--
residueSequence: RRIRFRPPRLPRPRPRPEFWPRP
qualitativeLabel: YES
--
residueSequence: RRIRARPPRLPRPRPRPYFTPRP
qualitativeLabel: NO
--
residueSequence: RRIRLRPPRLPRPRPRPKLIPRP
qualitativeLabel: NO
